Biological target: central cholinergic receptors
Assay: 3H-oxotremorine-M (Oxo-M) displacement from rat brain homogenates
Details: displacement of 3H-oxotremorine-M, pH 7.4, 40 min, 30° C
Description: Affinity to central cholinergic receptors in vitro was measured as the ability of the compounds to displace ^3 H-oxotremorine-M (Oxo-M) from rat brain homogenates, while affinity to central muscarinic M-1-receptors in vitro was measured as the ability of the compounds to displace ^3 H-pirenzepin (Pz) from rat brain homogenates. ^3 H-oxotremorine M binding was performed essentially as described by Birdsdall et al., 1980. […]
Structures can show the parent of a compound that is named as a salt.
VALUE_TYPE: IC50 (nM)

{"COMPOUND": "CSc1n[nH]c(C2=CCCN(C)C2)n1 [Compound 67, fumarate]", "VALUE_TYPE": "IC50", "UNIT_OF_MEASUREMENT": "nM", "REPORTED": 1500}
{"COMPOUND": "Cc1nc(C2=CCCNC2)nn1C [Compound 64, dihydrobromide, dihydrate]", "VALUE_TYPE": "IC50", "UNIT_OF_MEASUREMENT": "nM", "REPORTED": 2100}

A = CC1CC=C(c2nnn(C)n2)CN1 (stereo not shown) [Compound 30, hydrobromide]
B = CC1C=C(c2nnn(C)n2)CN(C)C1 (stereo not shown)
Select the item whose IC50 value is smaller, choosing between A and B . In your reply, give the label of the chosen option.
A
(A: 250 nM, B: 680 nM)

I = Cc1cnc(C2=CCCNC2)o1 [Compound 76, fumarate]
II = CC1=C(c2nnn(C)n2)CN(C)CC1 [Compound 38, oxalate]
Field: entry with larger IC50 (options I / II ). In your reply, give the label of the chosen option.
II
(II: 1000 nM, I: 190 nM)

###

target: central muscarinic M-1-receptors (Rattus norvegicus, UniProt P08482); assay: 3H-pirenzepine (Pz) displacement from rat brain homogenates; format: binding
Sequence (P08482 whole entry): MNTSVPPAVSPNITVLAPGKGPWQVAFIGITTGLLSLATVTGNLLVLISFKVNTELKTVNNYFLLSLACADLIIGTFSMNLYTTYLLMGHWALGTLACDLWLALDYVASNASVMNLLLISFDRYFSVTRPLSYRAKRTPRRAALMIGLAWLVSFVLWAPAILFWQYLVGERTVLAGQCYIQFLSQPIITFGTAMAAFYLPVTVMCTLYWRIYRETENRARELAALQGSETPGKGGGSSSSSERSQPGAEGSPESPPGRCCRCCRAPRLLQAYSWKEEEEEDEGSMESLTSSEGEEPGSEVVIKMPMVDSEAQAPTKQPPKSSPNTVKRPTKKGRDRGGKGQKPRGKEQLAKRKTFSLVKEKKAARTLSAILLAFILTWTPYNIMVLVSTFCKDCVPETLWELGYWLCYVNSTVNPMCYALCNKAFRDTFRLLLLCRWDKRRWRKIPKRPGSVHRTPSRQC
Counter-ions that a name gives are not always drawn.
VALUE_TYPE: pIC50
Interpret pIC50 as the negative base-10 log of the concentration measured in mol/L.

{"COMPOUND": "Cn1nnc(C2CCCNC2)n1 (centres unmarked) [Compound 13, hydrochloride]", "REPORTED": 5.44}

Next item in the queue.
Reported pIC50 for C#CCn1nnc(C2CCCNC2)n1 (centres unmarked) [Compound 26, hydrochloride] : what is it?
6.40

###

biological target: central muscarinic M-1-receptors (Rattus norvegicus); experiment: 3H-pirenzepine (Pz) displacement from rat brain homogenates; type: binding; conditions: displacement of 1.0 nM 3H-pirenzepine, rat brain homogenates, 60 min, 25° C; read-out: Pz, IC50
pIC50: −log10 of the molar value. Structures can show the parent of a compound that is named as a salt.
VALUE_TYPE: pIC50

Take a look at these entries with their results.
{"MOLECULE": "Cc1cc(C2=CCCN(C)C2)nn1C [Compound 95, dihydrochloride]", "TARGET_OR_TEST_SYSTEM": "central muscarinic M-1-receptors (Rattus norvegicus)", "VALUE_TYPE": "pIC50", "REPORTED": 6.74}
{"MOLECULE": "Cn1cnc(C2=CCCNC2)n1 [Compound 60, dihydrobromide]", "TARGET_OR_TEST_SYSTEM": "central muscarinic M-1-receptors (Rattus norvegicus)", "VALUE_TYPE": "pIC50", "REPORTED": 5.31}
{"MOLECULE": "CC1C=C(c2nnn(C)n2)CN(C)C1 (centres unmarked) [Compound 48]", "TARGET_OR_TEST_SYSTEM": "central muscarinic M-1-receptors (Rattus norvegicus)", "VALUE_TYPE": "pIC50", "REPORTED": 5.74}
{"MOLECULE": "CC(C)n1nnc(C2=CCCNC2)n1 [Compound 17, hydrobromide]", "TARGET_OR_TEST_SYSTEM": "central muscarinic M-1-receptors (Rattus norvegicus)", "VALUE_TYPE": "pIC50", "REPORTED": 6.32}
{"MOLECULE": "Cc1nc(C2=CCCNC2)nn1C [Compound 64, dihydrobromide, dihydrate]", "TARGET_OR_TEST_SYSTEM": "central muscarinic M-1-receptors (Rattus norvegicus)", "VALUE_TYPE": "pIC50", "REPORTED": 5.62}
{"MOLECULE": "CC1CC=C(c2nnn(C(C)C)n2)CN1 (centres unmarked) [Compound 33, hydrobromide]", "TARGET_OR_TEST_SYSTEM": "central muscarinic M-1-receptors (Rattus norvegicus)", "VALUE_TYPE": "pIC50", "REPORTED": 6.05}
{"MOLECULE": "CC1CC=C(c2nnn(C)n2)CN1 (centres unmarked) [Compound 30, hydrobromide]", "TARGET_OR_TEST_SYSTEM": "central muscarinic M-1-receptors (Rattus norvegicus)", "VALUE_TYPE": "pIC50", "REPORTED": 5.85}
{"MOLECULE": "Cc1nc(C2=CCCN(C)C2)nn1C [Compound 63]", "TARGET_OR_TEST_SYSTEM": "central muscarinic M-1-receptors (Rattus norvegicus)", "VALUE_TYPE": "pIC50", "REPORTED": 6.80}
{"MOLECULE": "CN1CCCC(c2nnn(C)n2)C1 (centres unmarked) [Compound 14]", "TARGET_OR_TEST_SYSTEM": "central muscarinic M-1-receptors (Rattus norvegicus)", "VALUE_TYPE": "pIC50", "REPORTED": 5.13}
{"MOLECULE": "CC1C=C(c2nnn(C)n2)CNC1 (centres unmarked) [Compound 47, hydrobromide]", "TARGET_OR_TEST_SYSTEM": "central muscarinic M-1-receptors (Rattus norvegicus)", "VALUE_TYPE": "pIC50", "REPORTED": 6.55}

P = CC1=C(c2nnn(C)n2)CNCC1 [Compound 39]
Q = Cn1nnnc1C1=CCCNC1 [Compound 9, fumarate]
Select the item whose pIC50 value is smaller, choosing between P and Q . In your reply, give the label of the chosen option.
Q

###

target: central cholinergic receptors; assay: 3H-oxotremorine-M (Oxo-M) displacement from rat brain homogenates; details: displacement of 3H-oxotremorine-M, pH 7.4, 40 min, 30° C
Where a name gives a salt, the structure may show the parent alone.
VALUE_TYPE: IC50 (nM)

{"COMPOUND": "CC1=C(c2nnn(C)n2)CNCC1 [Compound 39]", "VALUE_TYPE": "IC50", "REPORTED": 810}

A = Cc1cnc(C2=CCCN(C)C2)s1 [Compound 90]
B = CC(C)n1nnc(C2=CCCN(C)C2)n1 [Compound 16, fumarate]
Select the item whose IC50 value is smaller, choosing between A and B . In your reply, give the label of the chosen option.
B

###

molecular target: central cholinergic receptors; test: 3H-oxotremorine-M (Oxo-M) displacement from rat brain homogenates; conditions: displacement of 3H-oxotremorine-M, pH 7.4, 40 min, 30° C
pIC50: −log10 of the molar value. Where a name gives a salt, the structure may show the parent alone.
VALUE_TYPE: pIC50

Take a look at these entries with their results.
{"COMPOUND": "CN1CCC=C(c2cnn(C)n2)C1 [Compound 70]", "pIC50": 8.96}
{"COMPOUND": "CC1CC=C(c2nnn(C(C)C)n2)CN1 (stereo not shown) [Compound 33, hydrobromide]", "pIC50": 6.49}
{"COMPOUND": "C#CCn1nnc(C2CCCNC2)n1 (stereo not shown) [Compound 26, hydrochloride]", "pIC50": 7.36}
{"COMPOUND": "Cc1cnc(C2=CCCNC2)s1 [Compound 91, fumarate]", "pIC50": 6.44}
{"COMPOUND": "Cn1cnc(C2=CCCNC2)n1 [Compound 60, dihydrobromide]", "pIC50": 5.85}
{"COMPOUND": "CN1CCC=C(c2ncn(C)n2)C1 [Compound 59]", "pIC50": 6.55}
{"COMPOUND": "Cn1nnnc1C1=CCCNC1 [Compound 9, fumarate]", "pIC50": 5.49}
{"COMPOUND": "Cc1cc(C2=CCCNC2)on1 [Compound 54, maleate]", "pIC50": 6.64}
{"COMPOUND": "Cn1ncc(C2=CCCNC2)n1 [Compound 72, fumarate]", "pIC50": 9.32}
{"COMPOUND": "Cc1nc(C2=CCCN(C)C2)nn1C [Compound 63]", "pIC50": 6.15}

a = Cn1nnc(C2=CCCNC2)n1 [Compound 8, hydrobromide]
b = Cc1cc(C2=CCCNC2)no1 [Compound 55, hydrochloride]
Select the item whose pIC50 value is smaller, choosing between a and b . In your reply, give the label of the chosen option.
b
(b: 6.00, a: 8.20)

I = C#CCn1nnc(C2=CCC(C)NC2)n1 (stereo not shown) [Compound 36, hydrochloride]
II = CC1CC=C(c2nnn(C(C)C)n2)CN1C (stereo not shown) [Compound 34]
III = Cc1cnc(C2=CCCN(C)C2)o1 [Compound 75]
Could you please sort these 3 entries by pIC50 from high to low? # format: label list in the order the request specifies
III, II, I
(III: 7.24, II: 6.74, I: 6.41)

1 = C#CCn1nnc(C2=CC(C)CNC2)n1 (stereo not shown) [Compound 50, hydrochloride]
2 = COc1cnc(C2=CCCNC2)o1 [Compound 81]
3 = Cc1coc(C2=CCCN(C)C2)n1 [Compound 84, oxalate]
4 = Cc1coc(C2=CCCNC2)n1 [Compound 85, fumarate]
Task for the reader: rank each entry by its pIC50, from the minimum upward. # format: label list in the order the request specifies
2, 1, 3, 4
